Measured phosphorylation enrichment values are reported for all entries that follow.
Tested on: Fer (mouse)
EXPERIMENTAL PROTOCOL: phosphorylation enrichment, bacterial display (enrichment ratio); higher = better substrate or ligand; peptides without Tyr show the background
In your answer, state the number alone without any accompanying words.

# count of solved cases: 3
{"RESIDUES": "NFRNTYVNANE [KCNH2_Y475_T473N]", "NUMERIC VALUE": 0.358}
{"RESIDUES": "SEELHYFVQNH [UQCRC2_Y207]", "NUMERIC VALUE": 0.562}
{"RESIDUES": "RRYVYYYSYLL [PTEN_Y177]", "NUMERIC VALUE": 0.518}

For reference, reported phosphorylation enrichment for LTTEVYFPSIK [C5orf64_Y60_A57T] stands at 0.482

For reference, reported phosphorylation enrichment for QDGYSYPSRQM [LDLR_Y847] stands at 0.557

For reference, reported phosphorylation enrichment for YIPFRYPKEFQ [IDS_Y234_H229Y] stands at 0.425

For reference, reported phosphorylation enrichment for EAVSIYQFFGQ [CBLC_Y402_H405Y_YF] stands at 8.72

---

Test system: Fer (mouse)
EXPERIMENTAL PROTOCOL: phosphorylation enrichment, bacterial display (enrichment ratio); higher = better substrate or ligand; peptides without Tyr show the background
Measured phosphorylation enrichment values are reported for all entries that follow.
In your answer, state the number alone without any accompanying words.

# count of solved cases: 3
{"RESIDUES": "LLKAGYHGVLR [TTPA_Y100]", "phosphorylation enrichment": 0.671}
{"RESIDUES": "ADRNHYRRFRR [YBX1_Y145_P149R_YF]", "phosphorylation enrichment": 0.435}
{"RESIDUES": "SSSNPYSTVTM [ACTN2_Y599]", "phosphorylation enrichment": 10.9}

For reference, reported phosphorylation enrichment for PPSELYFVKVD [TERT_Y707_P704S] stands at 0.815

For reference, reported phosphorylation enrichment for EKKKKYMLPLD [DNM2_Y563_E560K] stands at 0.502

For reference, reported phosphorylation enrichment for MKDLTYSSLCF [ALOX5_Y446_A447S] stands at 3.84

For reference, reported phosphorylation enrichment for RVDRDYVLKSA [HTATIP2_Y111] stands at 0.665

For reference, reported phosphorylation enrichment for FTNRNYDLDFD [MYC_Y12_YF] stands at 0.543

---

TARGET OF ASSAY: Hck (UniProt P08631)
Sequence (P08631 whole entry, looked up): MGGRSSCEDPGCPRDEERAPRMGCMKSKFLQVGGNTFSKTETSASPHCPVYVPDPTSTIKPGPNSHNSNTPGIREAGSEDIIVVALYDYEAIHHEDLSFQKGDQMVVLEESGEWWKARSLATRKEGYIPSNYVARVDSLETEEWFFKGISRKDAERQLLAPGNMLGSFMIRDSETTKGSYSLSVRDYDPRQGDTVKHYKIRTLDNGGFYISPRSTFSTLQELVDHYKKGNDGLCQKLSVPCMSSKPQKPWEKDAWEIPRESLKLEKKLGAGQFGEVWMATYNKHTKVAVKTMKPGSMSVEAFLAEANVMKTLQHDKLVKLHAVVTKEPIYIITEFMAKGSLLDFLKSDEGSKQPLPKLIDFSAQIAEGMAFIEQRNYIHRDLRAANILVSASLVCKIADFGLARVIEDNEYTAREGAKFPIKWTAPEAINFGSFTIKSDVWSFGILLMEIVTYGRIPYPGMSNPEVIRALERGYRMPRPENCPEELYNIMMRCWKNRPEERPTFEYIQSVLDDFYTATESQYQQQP
EXPERIMENTAL PROTOCOL: phosphorylation enrichment, bacterial display (enrichment ratio); higher = better substrate or ligand; peptides without Tyr show the background
Decision: phosphorylation enrichment >= 0.5 yields label 1, all other cases yield label 0.

{"RESIDUES": "SREDIYKRNTE [PDE4DIP_Y45_I49T]", "CLASS": "label 0"}
{"RESIDUES": "MGGSLYFSYPD [HIKESHI_Y55_V54L]", "CLASS": "label 1"}
{"RESIDUES": "YCVDCYKNFVA [FHL1_Y213]", "CLASS": "label 1"}

q: Is phosphorylation enrichment at least 0.5? Consider HSPLRYTSILT [OR51B6_Y130_R125H]
a: label 1

q: Is phosphorylation enrichment at least 0.5? Consider PPNSPYIGSSP [KCNT1_Y740]
a: label 0

q: Is phosphorylation enrichment at least 0.5? Consider FADIAYNFRHA [PAH_Y166_G171A_YF]
a: label 0

q: Is phosphorylation enrichment at least 0.5? Consider AEQEEYSAMRD [NRAS_Y64_G60E]
a: label 1

---

Tested on: Fer (mouse)
EXPERIMENTAL PROTOCOL: phosphorylation enrichment, bacterial display (enrichment ratio); higher = better substrate or ligand; peptides without Tyr show the background
Decision: phosphorylation enrichment >= 0.6 yields class 1, all other cases yield class 0.

{"RESIDUES": "SLQFEYVHFGG [CDC14A_Y591_S589F_YF]", "TARGET OF ASSAY": "Fer (mouse)", "CLASS": "class 0"}
{"RESIDUES": "CEQELYSQLVY [WAS_Y102_W97C]", "TARGET OF ASSAY": "Fer (mouse)", "CLASS": "class 1"}
{"RESIDUES": "KGRAGYTTVAV [RET_Y752]", "TARGET OF ASSAY": "Fer (mouse)", "CLASS": "class 0"}

q: Is phosphorylation enrichment at least 0.6? Consider DAVAVYDGKIS [SH2D1A_Y7_H8D]
a: class 0

---

Measured SH2 binding enrichment values are reported for all entries that follow.
TARGET OF ASSAY: SHP2-C SH2
EXPERIMENTAL PROTOCOL: SH2 binding enrichment of the phosphorylated peptide, bacterial display (enrichment ratio); higher = better substrate or ligand; peptides without Tyr show the background

For reference, reported SH2 binding enrichment for KRTFEYEAEKN [DENND2B_Y396_D399E] stands at 0.703

---

Measured SH2 binding enrichment values are reported for all entries that follow.
TARGET OF ASSAY: Grb2 SH2 (UniProt P62993)
Sequence (P62993 whole entry, looked up): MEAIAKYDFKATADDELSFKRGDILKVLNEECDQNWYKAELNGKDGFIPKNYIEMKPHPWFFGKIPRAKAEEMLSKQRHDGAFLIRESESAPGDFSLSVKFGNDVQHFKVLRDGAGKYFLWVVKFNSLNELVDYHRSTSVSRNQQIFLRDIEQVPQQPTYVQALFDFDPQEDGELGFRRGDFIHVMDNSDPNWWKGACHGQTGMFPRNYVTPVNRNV
EXPERIMENTAL PROTOCOL: SH2 binding enrichment of the phosphorylated peptide, bacterial display (enrichment ratio); higher = better substrate or ligand; peptides without Tyr show the background
In your answer, state the number alone without any accompanying words.

# count of solved cases: 4
{"RESIDUES": "TTKAKYKTPTF [PLD2_Y573_YF]", "TARGET OF ASSAY": "Grb2 SH2 (UniProt P62993)", "SH2 binding enrichment": 0.778}
{"RESIDUES": "KVNKIYHPDFI [LIG3_Y767_Y768H]", "TARGET OF ASSAY": "Grb2 SH2 (UniProt P62993)", "SH2 binding enrichment": 0.889}
{"RESIDUES": "SVVLPYEPPEV [TP53_Y220_V218L]", "TARGET OF ASSAY": "Grb2 SH2 (UniProt P62993)", "SH2 binding enrichment": 0.791}
{"RESIDUES": "GRVLGYGAFRK [FLT4_Y853_G857R]", "TARGET OF ASSAY": "Grb2 SH2 (UniProt P62993)", "SH2 binding enrichment": 0.671}

The reported Grb2 SH2 (UniProt P62993) SH2 binding enrichment of SRNSKYNAEST [PSEN1_Y315_K311R] is 0.774

The reported Grb2 SH2 (UniProt P62993) SH2 binding enrichment of CTTIHYNFVCN [TP53_Y234_M237V_YF] is 1.94

The reported Grb2 SH2 (UniProt P62993) SH2 binding enrichment of IQKWEYVPLGT [FAH_Y244_P249T] is 0.837

The reported Grb2 SH2 (UniProt P62993) SH2 binding enrichment of EILLSYLRTGF [TGM1_Y365_YF] is 1.26

---

Tested on: c-Abl (mouse)
EXPERIMENTAL PROTOCOL: phosphorylation enrichment, bacterial display (enrichment ratio); higher = better substrate or ligand; peptides without Tyr show the background
Field: class. Source value: phosphorylation enrichment. Ranges: range A (below 0.7), range B (0.7 to below 1), range C (1 or more)

{"RESIDUES": "GFSRHYEDGFP [CTNND1_Y217_YF]", "CLASS": "range A"}
{"RESIDUES": "PEVSGYCHCAD [TG_Y234]", "CLASS": "range C"}

q: Class for RMDGTYACSFT [FLNB_Y704_YF] ?
a: range C

q: Class for QDRTFYERVRT [SPEN_Y633_S635R_YF] ?
a: range A

q: Class for TGNGYYFRVFS [MYBPC3_Y1136_I1131T] ?
a: range B

q: Class for EEGESDVCSSD [DCX_Y125_Y125D] ?
a: range A

---

TARGET OF ASSAY: EPHB1 (UniProt P54762)
Sequence (P54762 whole entry, looked up): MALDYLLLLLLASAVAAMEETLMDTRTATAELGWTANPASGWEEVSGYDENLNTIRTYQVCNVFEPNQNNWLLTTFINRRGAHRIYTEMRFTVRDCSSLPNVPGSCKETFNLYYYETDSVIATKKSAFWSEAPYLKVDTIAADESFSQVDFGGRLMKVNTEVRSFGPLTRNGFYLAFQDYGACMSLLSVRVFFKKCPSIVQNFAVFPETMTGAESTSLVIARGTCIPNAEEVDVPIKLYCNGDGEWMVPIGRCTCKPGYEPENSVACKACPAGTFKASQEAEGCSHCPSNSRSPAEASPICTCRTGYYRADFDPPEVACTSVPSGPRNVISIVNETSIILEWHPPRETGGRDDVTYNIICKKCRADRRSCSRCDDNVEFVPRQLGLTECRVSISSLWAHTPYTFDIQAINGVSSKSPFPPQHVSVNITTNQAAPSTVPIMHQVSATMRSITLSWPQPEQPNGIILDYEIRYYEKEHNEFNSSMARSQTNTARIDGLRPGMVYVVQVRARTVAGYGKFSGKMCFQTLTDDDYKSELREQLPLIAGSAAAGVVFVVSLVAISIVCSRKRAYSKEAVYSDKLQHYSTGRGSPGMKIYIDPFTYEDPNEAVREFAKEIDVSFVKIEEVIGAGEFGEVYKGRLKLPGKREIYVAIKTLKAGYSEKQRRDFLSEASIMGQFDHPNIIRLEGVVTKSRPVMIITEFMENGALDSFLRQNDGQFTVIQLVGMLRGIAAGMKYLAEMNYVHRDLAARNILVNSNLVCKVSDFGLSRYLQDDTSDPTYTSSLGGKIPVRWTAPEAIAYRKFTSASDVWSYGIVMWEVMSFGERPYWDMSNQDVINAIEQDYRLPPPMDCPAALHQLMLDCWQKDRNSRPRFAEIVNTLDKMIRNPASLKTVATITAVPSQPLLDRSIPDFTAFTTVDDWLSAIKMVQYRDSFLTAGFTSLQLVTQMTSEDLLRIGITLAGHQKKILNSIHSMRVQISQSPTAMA
EXPERIMENTAL PROTOCOL: phosphorylation enrichment, bacterial display (enrichment ratio); higher = better substrate or ligand; peptides without Tyr show the background
Measured phosphorylation enrichment values are reported for all entries that follow.
In your answer, state the number alone without any accompanying words.

{"RESIDUES": "IFHLSYIHNCE [PDE6B_Y227_L228I_YF]", "phosphorylation enrichment": 0.699}
{"RESIDUES": "PNLILYGDFRQ [MYH7_Y715_R712L]", "phosphorylation enrichment": 0.688}
{"RESIDUES": "TGDFGYRAPGF [TNS2_Y668_YF]", "phosphorylation enrichment": 0.501}
{"RESIDUES": "SVTCTYSPAVN [TP53_Y126_L130V]", "phosphorylation enrichment": 0.77}

For reference, reported phosphorylation enrichment for KTNVSYFGALD [CACNB4_Y103_C104F] stands at 0.438

For reference, reported phosphorylation enrichment for SRNSKYNAEST [PSEN1_Y315_K311R] stands at 0.328

For reference, reported phosphorylation enrichment for ELPEKYSQNIC [PKP2_Y626_Y631C] stands at 0.538

For reference, reported phosphorylation enrichment for HRDSSYFWEIE [RAF1_Y340_Q335H_YF] stands at 0.59

For reference, reported phosphorylation enrichment for EVVGRYSVHFA [MLH1_Y183_N187Y_YF] stands at 0.612

For reference, reported phosphorylation enrichment for QGIFGYHHFMQ [UFSP2_Y287_YF] stands at 0.794

For reference, reported phosphorylation enrichment for RNVFFYSFLLK [PTEN_Y178_Y174N_YF] stands at 0.861

For reference, reported phosphorylation enrichment for LLKAGYHGVLR [TTPA_Y100] stands at 0.686

For reference, reported phosphorylation enrichment for IITDFYVDMKF [MPP4_Y567_V562I_YF] stands at 1.41

For reference, reported phosphorylation enrichment for LLVVLYKYRCY [PSEN1_Y154] stands at 0.318

For reference, reported phosphorylation enrichment for PRIKTYMRPSP [TDP1_Y497_H493R] stands at 0.317

For reference, reported phosphorylation enrichment for SMGHRYIEVFR [HNRNPF_Y82_K87R] stands at 0.451

For reference, reported phosphorylation enrichment for EAVSIYQFFGQ [CBLC_Y402_H405Y_YF] stands at 11.2

For reference, reported phosphorylation enrichment for GLGGVYGGASG [KRT8_Y54_G53V] stands at 0.445
